For each entry below, report its β-Arrestin IC50 value.
# EXPERIMENTAL SYSTEM: T1, Formyl-Peptide Receptor 1 (UniProt P21462 1-350, limits assumed)
# T1 sequence (looked up): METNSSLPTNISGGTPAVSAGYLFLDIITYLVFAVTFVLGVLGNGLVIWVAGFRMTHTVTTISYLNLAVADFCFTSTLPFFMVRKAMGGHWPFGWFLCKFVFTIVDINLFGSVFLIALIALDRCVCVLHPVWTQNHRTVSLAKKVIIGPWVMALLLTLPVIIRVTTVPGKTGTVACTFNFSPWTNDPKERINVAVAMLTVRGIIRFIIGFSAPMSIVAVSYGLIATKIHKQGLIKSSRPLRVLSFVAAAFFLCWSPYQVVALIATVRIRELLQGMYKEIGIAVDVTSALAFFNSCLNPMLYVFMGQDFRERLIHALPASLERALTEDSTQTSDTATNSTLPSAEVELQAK
# ASSAY EXPLANATION: cell-based or functional assay
Bridges are numbered along the chain shown (N, C = ends). [ ]: non-standard residue; d: D form.
Report the value in nM with no unit label.

Challenge: Which β-Arrestin IC50 reading was recorded for the binder cyclo(YHACWG[dP]WTICYQA[dP]P) (disulfide 4-11; SMILES CC[C@H](C)[C@@H]1NC(=O)[C@H]([C@@H](C)O)NC(=O)[C@H](Cc2c[nH]c3ccccc23)NC(=O)[C@H]2CCCN2C(=O)CNC(=O)[C@H](Cc2c[nH]c3ccccc23)NC(=O)[C@@H]2CSSC[C@H](NC1=O)C(=O)N[C@@H](Cc1ccc(O)cc1)C(=O)N[C@@H](CCC(N)=O)C(=O)N[C@@H](C)C(=O)N1CCC[C@@H]1C(=O)N1CCC[C@H]1C(=O)N[C@@H](Cc1ccc(O)cc1)C(=O)N[C@@H](Cc1c[nH]cn1)C(=O)N[C@@H](C)C(=O)N2) [cyclo(-Tyr-His-Ala-Cys-Trp-Gly-^DPro-Trp-Thr-Ile-Cys-Tyr-Gln-Ala-^DPro-Pro-)] ?
Response given: 76

Challenge: Which β-Arrestin IC50 reading was recorded for the binder cyclo(YHKCHG[dP]WTICYEK[dK]P) (disulfide 4-11; SMILES CC[C@H](C)[C@@H]1NC(=O)[C@H]([C@@H](C)O)NC(=O)[C@H](Cc2c[nH]c3ccccc23)NC(=O)[C@H]2CCCN2C(=O)CNC(=O)[C@H](Cc2c[nH]cn2)NC(=O)[C@@H]2CSSC[C@H](NC1=O)C(=O)N[C@@H](Cc1ccc(O)cc1)C(=O)N[C@@H](CCC(=O)O)C(=O)N[C@@H](CCCCN)C(=O)N[C@H](CCCCN)C(=O)N1CCC[C@H]1C(=O)N[C@@H](Cc1ccc(O)cc1)C(=O)N[C@@H](Cc1c[nH]cn1)C(=O)N[C@@H](CCCCN)C(=O)N2) [cyclo(-Tyr-His-Lys-Cys-His-Gly-^DPro-Trp-Thr-Ile-Cys-Tyr-Glu-Lys-^DLys-Pro-)] ?
Response given: 385

Numbers sourced from patent US9957297B2.
